biological target: DQB1*05:01; assay: Peptide binding to HLA-DQ allele, competition assay
reported property: pIC50
Scale note: pIC50 = -log10(concentration in M).

>>> recorded_value("CC[C@H](C)[C@H](N)C(=O)N[C@@H](CC(C)C)C(=O)N[C@@H](Cc1ccccc1)C(=O)N[C@@H](CO)C(=O)N[C@@H](Cc1ccc(O)cc1)C(=O)N[C@@H](Cc1ccccc1)C(=O)N[C@@H](CCC(N)=O)C(=O)N[C@@H](CC(=O)O)C(=O)N[C@@H](CC(C)C)C(=O)N[C@H](C(=O)N[C@H](C(=O)N[C@H](C(=O)N[C@@H](CC(C)C)C(=O)N1CCC[C@H]1C(=O)N[C@@H](Cc1ccccc1)C(=O)O)[C@@H](C)O)[C@@H](C)CC)C(C)C [Peptide 3563.0023]")
7.72

Problem: Using the record for CC[C@H](C)[C@H](NC(=O)CNC(=O)[C@H](CCSC)NC(=O)[C@H](CC(N)=O)NC(=O)[C@@H](NC(=O)[C@@H](NC(=O)[C@H](Cc1ccccc1)NC(=O)[C@H](CCC(=O)O)NC(=O)[C@@H](N)C(C)C)C(C)C)[C@@H](C)O)C(=O)N[C@H](C(=O)N[C@H](C(=O)N1CCC[C@H]1C(=O)N[C@@H](CC(=O)O)C(=O)N[C@@H](Cc1ccccc1)C(=O)N[C@@H](C)C(=O)O)[C@@H](C)CC)[C@@H](C)CC [Peptide 3563.0007] , state its measured pIC50.
Solution: 6.64

Problem: Using the record for CC[C@H](C)[C@H](NC(=O)[C@H](CC(C)C)NC(=O)[C@H](CC(N)=O)NC(=O)[C@@H](NC(=O)[C@@H](NC(=O)[C@H](Cc1ccccc1)NC(=O)[C@H](Cc1c[nH]cn1)NC(=O)[C@H](CCCCN)NC(=O)[C@@H](NC(=O)[C@@H](N)Cc1c[nH]cn1)C(C)C)C(C)C)[C@@H](C)CC)C(=O)NCC(=O)N[C@@H](CC(=O)O)C(=O)N[C@@H](Cc1ccccc1)C(=O)N[C@@H](CCC(=O)O)C(=O)N[C@H](C(=O)O)C(C)C [Peptide 3563.0014] , state its measured pIC50.
Solution: 8.43

Problem: Using the record for CSCC[C@H](NC(=O)[C@@H](NC(=O)[C@H](Cc1ccccc1)NC(=O)[C@@H]1CCCN1C(=O)[C@H](C)NC(=O)[C@H](CCSC)NC(=O)[C@@H](NC(=O)[C@H](CO)NC(=O)[C@H](CCCNC(=N)N)NC(=O)[C@H](Cc1ccccc1)NC(=O)[C@@H](NC(=O)[C@H](CC(N)=O)NC(=O)[C@H](CO)NC(=O)[C@H](Cc1ccccc1)NC(=O)[C@@H](N)Cc1c[nH]cn1)C(C)C)C(C)C)[C@@H](C)O)C(=O)O [Peptide 3563.0010] , state its measured pIC50.
Solution: 5.25

Problem: Using the record for CC[C@H](C)[C@H](NC(=O)[C@H](CC(C)C)NC(=O)[C@H](CO)NC(=O)[C@@H](NC(=O)[C@@H](NC(=O)[C@@H](N)CCCCN)[C@@H](C)CC)C(C)C)C(=O)N[C@@H](CCCCN)C(=O)N[C@@H](CC(N)=O)C(=O)N[C@@H](CC(C)C)C(=O)N[C@@H](CC(C)C)C(=O)N[C@H](C(=O)N[C@@H](C)C(=O)N[C@@H](CC(C)C)C(=O)N[C@@H](CCCCN)C(=O)N[C@@H](CC(=O)O)C(=O)O)C(C)C [Peptide 3563.0028] , state its measured pIC50.
Solution: 6.91
